Consider the following compounds; for each one, report its Unified cytotox.
system: HepG2 cells; assay: HepG2 cytotoxicity assay; conditions: unified HepG2 value across the three screens
One number for each entry, in µM.

Known Unified cytotox results, listed for orientation:
COMPOUND: CC(=O)Nc1cccc(Nc2c3ccccc3nc3ccccc23)c1
Unified cytotox (µM): 12.30
//
COMPOUND: Cc1[nH]c2ccc(-c3ccccc3)cc2c(=O)c1Br
Unified cytotox (µM): 100.00
//
COMPOUND: NCC(NC(=O)c1ccc(-c2c[nH]c3ncccc23)s1)c1ccccc1.O=CO (stereo not shown)
Unified cytotox (µM): 16.22
//
COMPOUND: CCCCc1ccc(-c2ccc3[nH]c(C)c(Br)c(=O)c3c2)cc1
Unified cytotox (µM): 10.00

Respectfully, I request Unified cytotox for each entry included below.
1. C#C[C@H]1O[C@@H](n2cnc3c(Nc4cc(Br)cc(C(F)(F)F)c4)ncnc32)[C@H](O)[C@@H]1O
2. CCOC(=O)c1c(-c2ccccc2)nc2c(sc3ccccc32)c1O

1: 57.54; 2: 100.00

---

system: HepG2 cells; assay: HepG2 cytotoxicity assay; settings: read-out: HepG2 cytotoxicity assay IC50; dose response confirmation
Assign IC50 to each entry below.
Answers are plain numbers, in µM.

COMPOUND_SMILES: CC(=O)c1ccc(Nc2c(C(N)=O)cnc3cc(-c4c(C)noc4C)ccc23)cc1
IC50, µM: 100
//
COMPOUND_SMILES: Cc1[nH]c(C)c(-c2csc3ccccc23)c(=O)c1Cl
IC50, µM: 100

Specify reported IC50 for the compound shown: COc1ccc2nc(-c3cc(-c4ccc(NC(=O)C(C)C)cc4)cnc3N)[nH]c2c1
8.61

---

system: HepG2 cells; test: HepG2 cytotoxicity assay; conditions: HepG2 cytotoxicity unified across screens; >25 set to 25.00
PROPERTY: Unified cytotox (µM)
Give bare numbers, in µM.

Would you please look over these solved cases?
COMPOUND_SMILES: CCN(CC)CCCNc1ncc2c(-c3ccc(NC(=O)Nc4cc(C(F)(F)F)ccc4F)cc3)nn(C)c2n1.O=C(O)C(F)(F)F
Unified cytotox, µM: 9.50

COMPOUND_SMILES: CCc1cc(COc2ccc(CNCCC(C)C)cc2I)c(OCc2ccccc2)c(COc2ccc(CNCCC(C)C)cc2I)c1.Cl
Unified cytotox, µM: 5.80

COMPOUND_SMILES: CCCCN(CCCC)CCCCNc1c2ccccc2nc2ccccc12.Cl
Unified cytotox, µM: 19.00

Please find the next compound below.
Assign Unified cytotox to the following record: CCCCN1CCN(CCCCNc2c3ccccc3nc3ccccc23)CC1.Cl
12.68

---

test system: HepG2 cells; assay: HepG2 cytotoxicity assay; settings: unified HepG2 value across the three screens
PROPERTY: Unified cytotox (µM)
One number for each entry, in µM.

Illustrative cases are given below, each with its answer.
COMPOUND_SMILES: O=[N+]([O-])c1ccc(C=NNc2nc(Nc3ccccc3)nc(Nc3ccccc3)n2)o1
Unified cytotox / µM: 14.82
//
COMPOUND_SMILES: O=C(O)C(F)(F)F.O=c1[nH]ccc2nc(N[C@@H]3CCCNC3)nc(Nc3ccc(S(=O)(=O)N4CCOCC4)cc3)c12
Unified cytotox / µM: 45.71
//
COMPOUND_SMILES: CCOC(=O)[C@H](Cc1cc([N+](=O)[O-])c(Oc2ccc(OC)c(Cc3ccc(OC)c(C(C)C)c3)c2)c([N+](=O)[O-])c1)NC(=O)C(F)(F)F
Unified cytotox / µM: 100.00

Give one value of Unified cytotox per listed molecule.
1. CCCCOc1cc2ncc(C(=O)OCC)c(O)c2cc1OCCCC
2. SC(=Nc1ccc2c(c1)OCCO2)NN=Cc1ccccn1
3. CC(=O)c1ccc(NC(=O)Nc2ccc(N(C)c3ccnc(Nc4cccc(CS(C)(=O)=O)c4)n3)cc2)cc1
4. CN1CCN(CC(=O)Nc2ccc(-c3ccc(-c4nc5ccccc5[nH]4)cc3)cc2)CC1

[100.00, 3.28, 2.11, 21.63]
